Tested on: SNB-75 CNS
Protocol description: NCI tumour cell line growth inhibition, 48 h
I'd appreciate it if you could supply TGI values for the items below.

I would be grateful if you could share the reported TGI for CC(=O)Nc1ccc(S(=O)(=O)N/N=C(\C)CN2C(=O)c3ccccc3C2=O)cc1 .
> 100 µM

Which measured TGI value corresponds to COc1cc2c(cc1OC)C(Cc1cc(Br)c(OC)c(OC)c1)=[N+](C)CC2 ?
> 100 µM

Reported TGI for CC(C)(C)CC(C)(C)c1cc2c(O)c(c1)Cc1cc(C(C)(C)CC(C)(C)C)cc(c1O)Cc1cc(C(C)(C)CC(C)(C)C)cc(c1O)Cc1cc(C(C)(C)CC(C)(C)C)cc(c1O)Cc1cc(C(C)(C)CC(C)(C)C)cc(c1O)Cc1cc(C(C)(C)CC(C)(C)C)cc(c1O)Cc1cc(C(C)(C)CC(C)(C)C)cc(c1O)Cc1cc(C(C)(C)CC(C)(C)C)cc(c1O)C2 : what is it?
> 100 µM

###

What TGI was measured for each of the following?
System: HOP-92 NSCLC
Protocol description: NCI tumour cell line growth inhibition, 48 h
Your answer is read as µM, so omit the unit and give the number.

Would you kindly share the measured TGI for Oc1cc(F)cc2cccnc12 ?
3.1

Given the compound Nc1ccccc1-n1c2c(c3ccccc3c1=O)C(=O)c1ccccc1-2 , what is its reported TGI?
53.6

# get_value(readout='TGI', item= C/C=C/C(O)P(=O)(OC)OC (centres undefined) )
0.27

Given the entry CCN(CC)CCOc1ccccc1-n1c(C)ccc1-c1ccccc1 , report its measured TGI.
32.8

Fill in: TGI of O=C1CCCc2cc3c(cc21)CC1(C3)Cc2cc3c(cc2C1)C(=O)CCC3 is ___
82.1

Entry Nc1csc(-c2scc3c2OCCO3)c1N has what TGI?
71.8

Name the recorded TGI for CCSc1nnc(-c2ccc3ccccc3c2O)n1-c1ccccc1 .
92.1

Value lookup for TGI; key = CCCCCCCCCc1cc(=O)c2c(O)cc(O)cc2o1
33.7

Need TGI of CC(C)C(=O)/C=C/c1ccc(Cl)cc1Cl , thanks.
30.8

Would you mind telling me what TGI value was observed for CC(O)/C=C/C1OC(=O)CC1Nc1ccc(C=O)cc1 (centres undefined) ?
66.5

###

Tested on: OVCAR-4 ovarian
Protocol description: NCI tumour cell line growth inhibition, 48 h
For each record, write down the corresponding TGI.

Quick one: TGI for COc1ccccc1NC(=O)C1=C(C)NC(C)=C(C(=O)Nc2ccccc2OC)C1c1ccc(C2C(C(=O)Nc3ccccc3OC)=C(C)NC(C)=C2C(=O)Nc2ccccc2OC)cc1 ?
15.6 µM

Sample CC12OC(C(=O)C13CCC3)C1C(=O)c3c(O)ccc(O)c3C(=O)C12 (stereo unspecified) — what was its TGI?
> 100 µM

Give the measured TGI of Nc1n[nH]c2cc(F)c([C@@H]3Nc4c(F)cc5[nH]ncc5c4[C@H]4C5CCC(C5)[C@@H]34)cc12 (stereo partly specified) .
33.3 µM

Record request: TGI value, item CCOC(=O)C1=C(Nc2cccc3ccccc23)OCC1=O
> 100 µM

Entry COc1cc2cc[n+](C)c(Cc3ccc(Oc4cc(Cc5c6cc(OC)c(OC)cc6cc[n+]5C)ccc4OC)cc3)c2cc1OC has what TGI?
> 100 µM

// TGI lookup, key: CCC1=NC(N/N=C/c2ccco2)=N/C1=C\c1ccco1
> 100 µM

State the recorded TGI for this entry: COC(=O)[C@]12CC[C@@H](C)[C@H](C)[C@@H]1C1=CC[C@@H]3[C@@]4(C)C(C=O)=C[C@@](C)(COC(=O)c5ccco5)C4=CC[C@@]3(C)[C@]1(C)CC2
22.4 µM

Would you mind telling me what TGI value was observed for COc1ccc(-n2nc(C(=O)c3ccccc3)c3nn4c(=O)cc(-c5ccccc5)nc4nc32)cc1 ?
> 100 µM

Which measured TGI value corresponds to CCOC(=O)n1ccc2c(C(=O)OC)c(C(=O)OC)cc(/C(=C/C(=O)OC)C(=O)OC)c21 ?
> 100 µM

Dear colleague, I am looking for the recorded TGI of the following compound: CN(C)C(=S)/N=C(\N)N(C)C
> 100 µM

Fill blank: measured TGI of the compound O=c1c2cc(Br)ccc2n(C2OC(CO)C(O)C(O)C2O)c(=S)n1-c1ccccc1 (stereo unspecified) is ____.
> 100 µM

Suppose we examine the compound CC(C)C1COC(C(C)(C)C2=N[C@@H](C(C)C)CO2)=N1 (stereo partly specified) ; what TGI value has been reported?
> 100 µM

What does the record list as TGI for Cc1ccc([N+](=O)[O-])cc1S(=O)(=O)Nc1ccc(C2=NN(C(=O)c3ccccc3)C(c3ccccc3O)C2)cc1 (stereo unspecified) ?
42.8 µM

Look at this compound and give its reported TGI. Cc1cc(=O)[nH]c(S(=O)(=O)NC(=O)Nc2cccc(Cl)c2)n1
> 41.7 µM

For the compound shown here, Nc1ccccc1-n1c2c(c3ccccc3c1=O)C(=O)c1ccccc1-2 , give the reported TGI.
82.7 µM

Recorded TGI of COc1ccc(-c2n[nH]c3nc4ccccc4n3c2=O)cc1 , please.
> 100 µM

###

Tested on: PC-3 prostate
Protocol description: NCI tumour cell line growth inhibition, 48 h
For each record, write down the corresponding TGI.
Report only the number, with the unit µM understood.

Suppose we examine the compound CCN1Cc2c(/C=C/c3ccccc3)nc3ccc(OC)cc3c2N(c2cccc(Cl)c2)C1 ; what TGI value has been reported?
5.64

May I ask what TGI has been recorded for O=C(C[n+]1ccn(CC(OCc2ccc(Cl)cc2Cl)c2ccc(Cl)cc2Cl)c1)c1ccc(F)cc1 (centres undefined) ?
2.91

###

Tested on: U251 CNS
Protocol description: NCI tumour cell line growth inhibition, 48 h
Provide the recorded TGI for the entries that follow.

Entry CCOC(=O)n1ccc2c(C(=O)OC)c(C(=O)OC)cc(/C(=C/C(=O)OC)C(=O)OC)c21 : reported TGI = ?
> 100 µM

Please look up its TGI: O=C1c2ccccc2C(=O)c2c1sc1nc3ccccc3n21
9.37 µM

Bench note: what TGI did COc1ccc(OC)c(-c2nc3sc(C)cn3c2/C=C2\C(=O)N(C)c3ccccc32)c1 show?
59.5 µM

GET /values?readout=TGI&item= O=C(O)c1ccccc1C(=O)Nc1cc2c(cc1Br)-c1ccccc1C2=O
> 100 µM

Record request: TGI value, item FC(F)(F)c1nc2c(ccc3[nH]c4c(-c5ccccc5)nccc4c32)[nH]1
> 100 µM

TGI lookup needed for O=C(Cc1ccccc1)N/N=C(/c1nc2ccc([N+](=O)[O-])cc2[nH]c1=O)C(O)c1ccco1 (stereo not drawn) , thanks.
> 100 µM

Would you mind telling me what TGI value was observed for N#Cc1n[nH]n(-c2ccccc2)c1=O ?
> 100 µM

// TGI lookup, key: CCCC(=O)Nc1cc(/C=C/C(=O)N2CC(CCl)c3c2cc(OC(C)=O)c2[nH]cc(C)c32)n(C)c1 (stereo not drawn)
0.105 µM

Which TGI value is on record for N#CC(C(=S)Nc1ccccc1)=C1Nc2ccccc2N1 ?
> 10 µM

What does the data say about its TGI? Entry: CC(C)C(=O)CC(c1ccc(Br)cc1)N1N=C(C(C)C)CC1c1ccc(Br)cc1 (stereo not drawn)
> 100 µM

Query (compound): CCOC(=O)/C=C(/C(=O)OCC)n1cc(C)c(=O)[nH]c1=O ; field requested: TGI
18.8 µM

Look up TGI for this compound: COC(=O)C1OC(SCCN)C(O)C(O)C1O (stereo not drawn)
> 100 µM

Consider the compound CCCCCCCCCCCc1cc(=O)c2c(O)cccc2o1 and give its measured TGI.
> 100 µM

// provenance: PubChem BioAssay (NCI)
